Test system: CYPIR (Rice Flatsedge)
Assay: Preemergence weed control under flooded paddy conditions
Type: in vivo, Cyperus iria
Settings: 0.1250 kg/ha, rated 3-4 weeks after treatment
Strictly below 1 in Herbicidal rating CYPIR: y. Otherwise: n.

[
  {
    "compound": "CCC1SC(=Nc2cc(-n3c(=O)cc(C(F)(F)F)n(C)c3=O)c(F)cc2Cl)N(C)C1=O (stereo not shown) [Compound 10]",
    "discrete-label": "n"
  },
  {
    "compound": "Cn1c(C(F)(F)F)cc(=O)n(-c2cc(N=C3SCC(=O)N3CC(=O)NS(C)(=O)=O)c(Cl)cc2F)c1=O [Compound 38]",
    "discrete-label": "n"
  },
  {
    "compound": "COC(=O)CCN1C(=O)CSC1=Nc1cc(-n2c(=O)cc(C(F)(F)F)n(C)c2=O)c(F)cc1Cl [Compound 28]",
    "discrete-label": "n"
  },
  {
    "compound": "CN1C(=O)CSC1=Nc1cc(N2C(=O)C3=C(CCCC3)C2=O)c(F)cc1Cl [Compound 1]",
    "discrete-label": "n"
  },
  {
    "compound": "CN1C(=O)C(F)SC1=Nc1cc(N2C(=O)C3=C(CCCC3)C2=O)c(F)cc1Cl (stereo not shown) [Compound 5]",
    "discrete-label": "y"
  },
  {
    "compound": "Cn1c(C(F)(F)F)cc(=O)n(-c2cc(N=C3SCC(=O)N3[C@@H](Cc3ccccc3)C(=O)O)c(Cl)cc2F)c1=O [Compound 53]",
    "discrete-label": "n"
  },
  {
    "compound": "CCOC(=O)COc1ccccc1CC1S/C(=N/c2cc(-n3c(=O)cc(C(F)(F)F)n(C)c3=O)c(F)cc2Cl)N(CC(=O)OCC)C1=O (stereo not shown) [Compound 42]",
    "discrete-label": "y"
  },
  {
    "compound": "CCOC(=O)CN1C(=O)C(Cc2ccccc2OC(C)C(=O)OC)SC1=Nc1cc(-n2c(=O)cc(C(F)(F)F)n(C)c2=O)c(F)cc1Cl (stereo not shown) [Compound 50]",
    "discrete-label": "y"
  },
  {
    "compound": "C=CCN1C(=O)CSC1=Nc1cc(-n2c(=O)cc(C(F)(F)F)n(C)c2=O)c(F)cc1Cl [Compound 27]",
    "discrete-label": "n"
  }
]
